- Test system: A2780-SP cells (ovarian cancer stem cells)
- Assay overview: Sphere cell viability of A2780-SP cells (Cell-titer Glo)
- Type: cell-based
- Condition details: 192 h; sphere cell viability, culture for 8 days; read-out: A2780-SP
Value kind: IC50

Recorded results for 5 compounds are shown here.
CN1CCN(CCCOc2ccc(S(=O)(=O)NCCCc3c[nH]c4ncc(Cl)cc34)cc2)CC1 [Example 169]	< 1000 nM
O=S(=O)(NCCCc1c[nH]c2ccc(Cl)cc12)c1ccc(CCCCN2CCCCC2)cc1 [Example 90]	< 1000 nM
O=S(=O)(NCC1CCc2[nH]c3ccccc3c2C1)c1ccc(OCCCN2CCNCC2)cc1 (stereo not drawn) [Example 190]	< 1000 nM
CN1CCN(c2cc(Oc3ccc(S(=O)(=O)NCCCc4c[nH]c5ccc(Cl)cc45)cc3)cc(N3CCN(C)CC3)c2)CC1 [Example 130]	1000 to 10000 nM
O=S(=O)(NCCCc1c[nH]c2ccc(Cl)cc12)c1ccc(OCCCn2cnc(Cl)c2Cl)cc1 [Example 166]	1000 to 10000 nM

So what does the record say about IC50 for Cc1nc(C)n(CCCOc2ccc(S(=O)(=O)NCCCc3c[nH]c4ccc(Cl)cc34)cc2)c1C [Example 176] ?
< 1000 nM

So what does the record say about IC50 for CN1CCN(c2cc(Cl)nc(Nc3ccc(S(=O)(=O)NCCCc4c[nH]c5ccc(Cl)cc45)cc3)c2)CC1 [Example 140] ?
1000 to 10000 nM

So what does the record say about IC50 for O=S(=O)(NCCCc1c[nH]c2ccc(Cl)cc12)c1ccc(OCCCN2CCNCC2)c(F)c1 [Example 104] ?
< 1000 nM

So what does the record say about IC50 for CN1CCN(CCCOc2ccc(S(=O)(=O)NCCCc3c[nH]c4c(Cl)cc(Cl)cc34)cc2)CC1 [Example 165] ?
< 1000 nM

* * *

The molecules listed here are annotated with their pIC50.
- Experimental target: Pin1 (Homo sapiens, UniProt Q13526)
- Construct: purchased Anaspec
- Sequence (Q13526 whole entry): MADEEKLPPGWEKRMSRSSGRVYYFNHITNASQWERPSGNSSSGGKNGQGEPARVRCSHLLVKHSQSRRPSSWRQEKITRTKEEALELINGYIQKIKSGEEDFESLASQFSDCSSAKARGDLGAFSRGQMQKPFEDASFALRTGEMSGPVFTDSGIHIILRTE
- Assay overview: Evaluation of Pin1 enzyme inhibitory activity (Sensolyte Green Pin1 assay kit)
- Format: biochemical
- Condition details: concentration at which the Pin1 enzyme activity is inhibited; 2 hours at room temperature, fluorescence 490 nm/520 nm; read-out: Pin 1 inhibition
pIC50: −log10 of the molar value.

Recorded results for 2 molecules are shown here.
CCN(CC)CCCOc1ccc(S(=O)(=O)NCCCc2c[nH]c3ccccc23)cc1 [Example 35]	4.00 to 5.00
O=S(=O)(NCCCc1c[nH]c2ccc(Cl)cc12)c1cccc(OCCCC2CCNCC2)c1 [Example 94]	5.00 to 6.00

Let us move to another entry and its pIC50.
So what does the record say about pIC50 for O=S(=O)(NCCCc1c[nH]c2ccccc12)c1ccc(OCCCN2CCOCC2)cc1 [Example 30] ?
< 4.00

* * *

- Experimental target: Pin1 (Homo sapiens)
- Construct: purchased Anaspec
- Assay overview: Evaluation of Pin1 enzyme inhibitory activity (Sensolyte Green Pin1 assay kit)
- Assay type: biochemical
- Condition details: concentration at which the Pin1 enzyme activity is inhibited; 2 hours at room temperature, fluorescence 490 nm/520 nm; read-out: Pin 1 inhibition
The molecules listed here are annotated with their IC50.

Recorded results for 3 molecules are shown here.
CN1CCN(CCCOc2ccc(S(=O)(=O)NCCCc3c[nH]c4ncc(Cl)cc34)cc2)CC1	< 1000 nM
CN(C)CCCOc1ccc(S(=O)(=O)NCCc2ccccc2)cc1	> 100000 nM
CN1CCC(CCCOc2ccc(S(=O)(=O)NCCCc3c[nH]c4ccc(Cl)cc34)cc2)CC1	< 1000 nM

So what does the record say about IC50 for C[C@@H]1CN(CCCOc2ccc(S(=O)(=O)NCCCc3c[nH]c4ccc(Cl)cc34)cc2)C[C@H](C)N1 ?
1000 to 10000 nM

* * *

- Experimental target: Pin1 (Homo sapiens)
- Construct: purchased Anaspec
- Assay overview: Evaluation of Pin1 enzyme inhibitory activity (Sensolyte Green Pin1 assay kit)
- Type: biochemical
- Condition details: concentration at which the Pin1 enzyme activity is inhibited; 2 hours at room temperature, fluorescence 490 nm/520 nm; read-out: Pin 1 inhibition
pIC50: −log10 of the molar value.
The compounds listed here are annotated with their pIC50.

O=S(=O)(NCCCc1c[nH]c2ccc(Cl)cc12)c1ccc(OCCCN2CCCC2)cc1	> 6.00
CC(CCc1c[nH]c2ccc(Cl)cc12)NS(=O)(=O)c1ccc(OCCCN2CCN(C)CC2)cc1 (centres unmarked)	> 6.00
CN1CCN(CCCOc2ccc(S(=O)(=O)NCC3CCc4[nH]c5ccc(Cl)cc5c4C3)cc2)CC1 (centres unmarked)	> 6.00
O=S(=O)(NCCCc1c[nH]c2ccc(-c3ccccc3)cc12)c1ccc(OCCCN2CCNCC2)cc1	5.00 to 6.00
CN1CCN(c2cc(F)cc(Oc3ccc(S(=O)(=O)NCCCc4c[nH]c5ccc(Cl)cc45)cc3)c2)CC1	> 6.00

So what does the record say about pIC50 for CN(C)CCCOc1ccc(S(=O)(=O)NCCCN2CCCC2=O)cc1 ?
< 4.00

So what does the record say about pIC50 for CCN1CCN(CCCOc2ccc(S(=O)(=O)NCCCc3c[nH]c4ccccc34)cc2)CC1 ?
5.00 to 6.00

So what does the record say about pIC50 for CC(C)C(=O)N1CCN(CCCOc2ccc(S(=O)(=O)NCCCc3c[nH]c4ccc(F)cc34)cc2)CC1 ?
4.00 to 5.00

* * *

- System: A2780-SP cells (ovarian cancer stem cells)
- Assay overview: Sphere cell viability of A2780-SP cells (Cell-titer Glo)
- Assay type: cell-based
- Condition details: 192 h; sphere cell viability, culture for 8 days; read-out: A2780-SP
pIC50: −log10 of the molar value.
Value kind: pIC50

Recorded results for 7 molecules are shown here.
O=S(=O)(NCC1CCc2[nH]c3ccc(F)cc3c2C1)c1ccc(OCCCN2CCNCC2)cc1 (centres unmarked)	> 6.00
CS(=O)(=O)CCCOc1ccc(S(=O)(=O)NCCCc2c[nH]c3ccc(Cl)cc23)cc1	< 5.00
O=S(=O)(NCCCc1n[nH]c2ccc(Cl)cc12)c1ccc(OCCCN2CCNCC2)cc1	> 6.00
CC(CCc1c[nH]c2ccc(Cl)cc12)NS(=O)(=O)c1ccc(OCCCN2CCN(C)CC2)cc1 (centres unmarked)	> 6.00
CN1CCN(CCCOc2ccc(S(=O)(=O)Nc3ccccc3Cc3c[nH]c4ccc(Cl)cc34)cc2)CC1	< 5.00
CN1CCC(CCCCc2ccc(S(=O)(=O)NCCCc3c[nH]c4ccc(Cl)cc34)cc2)CC1	> 6.00
O=S(=O)(NCCCc1c[nH]c2ccc(Cl)cc12)c1ccc(NCCCN2CCCCC2)cc1	5.00 to 6.00

Let us move to another entry and its pIC50.
So what does the record say about pIC50 for CN1CCN(CCCCc2ccc(S(=O)(=O)NCCCc3c[nH]c4ccc(Cl)cc34)cc2)CC1 ?
> 6.00

* * *

- Experimental target: Pin1 (Homo sapiens, UniProt Q13526)
- Construct: purchased Anaspec
- Assay overview: Evaluation of Pin1 enzyme inhibitory activity (Sensolyte Green Pin1 assay kit)
- Type: biochemical
- Condition details: concentration at which the Pin1 enzyme activity is inhibited; 2 hours at room temperature, fluorescence 490 nm/520 nm; read-out: Pin 1 inhibition
The molecules listed here are annotated with their IC50.

CN1CCN(CCCCc2ccc(S(=O)(=O)NCCCc3c[nH]c4ccc(Cl)cc34)cc2)CC1	< 1000 nM
CN1CCC(CCCOc2ccc(S(=O)(=O)NCCCc3c[nH]c4ccc(F)cc34)cc2)CC1	1000 to 10000 nM

So what does the record say about IC50 for O=S(=O)(NCCCc1c[nH]c2ccc(Cl)cc12)c1ccc(NCCCN2CCNCC2)cc1 ?
< 1000 nM

So what does the record say about IC50 for CN(C)CCCOc1ccc(S(=O)(=O)NCCc2nc3ccccc3[nH]2)cc1 ?
> 100000 nM

* * *

The compounds listed here are annotated with their pIC50.
- Test system: A2780-SP cells (ovarian cancer stem cells)
- Assay overview: Sphere cell viability of A2780-SP cells (Cell-titer Glo)
- Format: cell-based
- Condition details: 192 h; sphere cell viability, culture for 8 days; read-out: A2780-SP
pIC50: −log10 of the molar value.

Recorded results for 3 compounds are shown here.
CNC1CN(CCCOc2ccc(S(=O)(=O)NCCCc3c[nH]c4ccc(Cl)cc34)cc2)C1 [Example 77]	5.00 to 6.00
C[C@@H]1CN(CCCOc2ccc(S(=O)(=O)NCCCc3c[nH]c4ccc(Cl)cc34)cc2)C[C@H](C)N1 [Example 110]	> 6.00
O=S(=O)(NCCCc1c[nH]c2ccc(Cl)cc12)c1ccc(NCCCC2CCNCC2)cc1 [Example 88]	> 6.00

So what does the record say about pIC50 for O=S(=O)(NCCCc1c[nH]c2ccc(Cl)cc12)c1ccc(OCCCN2CCC(O)CC2)cc1 [Example 75] ?
5.00 to 6.00

The values you see were collected from patent US12583818B2.
